- Test system: HepG2
- TEST_SUMMARY: GSK_TCMDC: Percent inhibition of human HepG2 cell line. Test compounds present at 10uM.
- Format: functional
Assign classes using reported Inhibition values and the ranges low bracket: < 9%; middle bracket: ≥ 9% and < 20%; high bracket: ≥ 20%, please.

                                   compound          cat
0  CCCOc1cc(O)c(-c2[nH]nc(C)c2Oc2ccccc2)cc1CC  low bracket

Pick a category. Item: CNCCNCc1cccc(-c2ccc(-c3nc4cccc(C)c4[nH]3)s2)c1.O=C(O)C(F)(F)F middle bracket

Pick a category. Item: COc1ccccc1NC(=O)Nc1cccc(-c2cccc(-c3nc4cc(C(F)(F)F)ccc4[nH]3)c2)c1 high bracket

Pick a category. Item: Nc1ccnc(N2CCC(CCOc3ccnc4cc(Cl)ccc34)CC2)c1.O=C(O)C(F)(F)F high bracket

Pick a category. Item: CC(Cc1ccc(OCCN2CCN(c3cccc(Cl)c3)CC2)cc1)NCC(O)c1cccc(Cl)c1.Cl (stereo not drawn) high bracket

Pick a category. Item: Br.CC1(C)NC(N)=NC(=N)N1OCCNCc1ccc(Cl)cc1 low bracket

---

Please provide measured Inhibition for the entries that follow.
- System: Plasmodium falciparum
- TEST_SUMMARY: GSK_TCMDC: Inhibition of Plasmodium falciparum Dd2 in whole red blood cells, using parasite LDH activity as an index of growth. Test compounds present at 2uM
- Format: functional
Answers are plain numbers, in %.

                                   molecule    experimental_system  quantitative_result
0  O=C(c1cc2c(s1)-c1cccc(Cl)c1SC2)N1CCN(c2ccncc2)CC1  Plasmodium falciparum                   36

Field: Inhibition. Fill in for each record below.
1. FC(F)(F)c1cccc(Nc2nc3nonc3nc2NC2C3CC4CC(C3)CC2C4)c1 (stereo not drawn)
2. Cc1nnc(NC(=O)c2cn(-c3ccccc3)nc2-c2ccccc2C)o1
3. Cc1cc(N2CCOCC2)nc(Nc2ccc(NC(=O)c3cccc4ccccc34)cc2)n1
4. COc1ccc(CNC2CCN(C)CC2)cc1-c1ccc(S(=O)(=O)NCCc2ccccn2)c(C)c1.O=C(O)C(F)(F)F

1. 100
2. 87
3. 11
4. 91

Field: Inhibition. Fill in for each record below.
1. Fc1ccc2[nH]c(-c3ccc(-c4ccc(CNCC5CCCO5)cc4)s3)nc2c1.O=C(O)C(F)(F)F (stereo not drawn)
2. Cc1cccc(Cl)c1S(=O)(=O)N1CCCCC(c2ccc(C(F)(F)F)cc2)=N1
3. CC(Oc1c(C2CCN(CCCCNC(=O)c3ccc(-c4ccc(C#N)cc4)cc3)CC2)ccc2c1CCCC2)C(N)=O (stereo not drawn)
4. CCCCc1ccc2[nH]c(NC(=O)OC)nc2c1
5. CCC(C)CN1CCN(c2ccc(NC(=O)c3cccs3)cc2)CC1C.O=C(O)C(F)(F)F (stereo not drawn)
6. FC(F)(F)c1ccc(Nc2nnnc3ccccc23)cc1
7. CC(=O)N1c2ccccc2C(C)=CC1(C)C
8. Cc1cc(N[C@@H](Cc2ccccc2)C(=O)NC2CCCC2)nc(Nc2ccccc2)n1.O=C(O)C(F)(F)F

1: 99; 2: 100; 3: 83; 4: 1; 5: 94; 6: 82; 7: 11; 8: 82

Field: Inhibition. Fill in for each record below.
1. CON=Cc1sc(CNCCCN=c2cc(O)c3ccccc3[nH]2)c(C)c1Br.Cl
2. O=C(Cn1c(CCc2cccc(F)c2F)nc(=O)c2cccnc21)N(Cc1ccc(-c2ccc(C(F)(F)F)cc2)cc1)C1CCN(C2CCOCC2)CC1.O=C(O)C(O)C(O)C(=O)O
3. O=C(O)C(F)(F)F.O=S(=O)(NCCN1CCCC1)c1ccc(-c2ccc(CNCc3ccc(F)cc3)cc2)s1
4. Cc1cccc2nc(-c3ccc(-c4ccc(CN5CCN(CC6CCCN(C)C6)CC5)cc4)s3)[nH]c12.O=C(O)C(F)(F)F (stereo not drawn)

[63, 67, 44, 99]

Form field: reported Inhibition of CC(C)C[C@@H](CNC[C@H](CC(C)C)NC(=O)OC(C)(C)C)NC(=O)OC(C)(C)C 58

Ref: ChEMBL document CHEMBL1157539
